Hello, the source for this data is the supplement of paper PMC12764529, in case you need it.

Each entry below carries its recorded folding stability dG unfold.
# PROTOCOL SUMMARY: folding stability dG unfold (combined trypsin and chymotrypsin); higher = more stable
Quick reminder: number only, in kcal/mol, skip the unit.

>  <RESIDUES>
SAGGSIKVFESESTDPATGKVTTTTTTVTESSEEPTPEAAKNTPPGETTTTTTTTTTTSPVPPGTAASAGGS [r8_274_JUSTAS]

>  <folding stability dG unfold [kcal/mol]>
0.54

$$$$
>  <RESIDUES>
SANPALYQWVTTDVVLPFETEEEALAAVEALAAARAAATGATVTVSVEVERLPDGLRVRVPVTTLVPLLSAG [r14_626_JUSTAS]

>  <folding stability dG unfold [kcal/mol]>
1.05

$$$$
>  <RESIDUES>
SAGGSAGGSAGGMTYVTVTLKEGDTEVTLTFPLEKLPEVVPEPGIEILEVETSPLDPELLSAGGSAGGSAGG [r17_204_JUSTAS]

>  <folding stability dG unfold [kcal/mol]>
1.05

$$$$

Next, consider the following sequence.
Please give the measured folding stability dG unfold for this sequence: SAGGGFDIITITFGGIPITLTLEGEEEVKKFIEELPKLGIKTEILEKEKKIGPDGKPYVEVKVKAIPSAGGS [r8_336_JUSTAS]
1.19

----------
# PROTOCOL SUMMARY: folding stability dG unfold from trypsin proteolysis; higher = more stable
Class yes: folding stability dG unfold at least 1 kcal/mol. Class no: folding stability dG unfold below 1 kcal/mol.

These recorded examples may help you get a feel for the data.
>  <RESIDUES>
SAGGSAGGSAPTLELTVTLPDGLRVTVRYDLETDEVTIEVRPLPAPPPPELSEEERKKLAEESAGGSAGGSA [r18_236_TrROS_Hall]

>  <LABEL VALUE>
yes

$$$$
>  <RESIDUES>
SAGGSAGGSAGGGKEISLDELIDIAIELGYPGTIEDLLADPNIKIYPNPYDDKPVILIPDSAGGSAGGSAGG [r7_180_TrMRF]

>  <LABEL VALUE>
yes

$$$$

Consider the additional sequence presented here.
Is it the case that SAGGSAGGSAMTPETIKEKYPNVDYSPSPLGGKTVYTFTFPSGSTVTVTFNPGSATITTIAGSAGGSAGGSA [r18_13_JUSTAS] has folding stability dG unfold reaching or exceeding 1 kcal/mol?
yes

----------
# PROTOCOL SUMMARY: folding stability dG unfold (combined trypsin and chymotrypsin); higher = more stable
Assign classes using reported folding stability dG unfold values and the ranges low bin = under 1 kcal/mol, mid bin = from 1 kcal/mol up to 2 kcal/mol, high bin = 2 kcal/mol and over, please.

Below, 6 sequences whose answers are already recorded.
>  <RESIDUES>
SAGGSAGGSAGDGINFTLDIPIEGDFELRDVYLTPLEPENRRAFFLLRYKDGPVLLTLPLSAGGSAGGSAGG [r11_1013_TrMRF]

>  <LABEL VALUE>
mid bin

$$$$
>  <RESIDUES>
SAGGSAGGSAGGSGPPKLRLLRRVEVVYDGLVLPPNFPLPPSAPPNLKVFVSLVTLPEGSAGGSAGGSAGGS [r4_436_TrMRF]

>  <LABEL VALUE>
high bin

$$$$
>  <RESIDUES>
SAGGSAGGGMPISISITVTLSDGTVLEFTVTVPENAPDPASVAAALAAEIKAAHPDVAVTFTPASAGGSAGG [r6_132_JUSTAS]

>  <LABEL VALUE>
mid bin

$$$$
>  <RESIDUES>
SAGGSAGGSAGGSSAQIPFPDDGAWIMIDWDPEGRPKVKVHNPDNGEEIEFPPGAPIKISAGGSAGGSAGGS [r4_158_TrROS]

>  <LABEL VALUE>
low bin

$$$$
>  <RESIDUES>
SAGKVKIEVEEVPPNVKKVKVESLEELLEAAKKLPPGAVVEVELEDGSKVTVVLNKDGKVVEVKKEPVPSAG [r5_506_TrROS_Hall]

>  <LABEL VALUE>
mid bin

$$$$
>  <RESIDUES>
SAGGSAMKGLSVERVELDGEEVVRIEIETPAGGSETLELSLRDPEAVEAYLAALKAAGVIAEILPESAGGSA [r15_575_JUSTAS]

>  <LABEL VALUE>
mid bin

$$$$

Now consider a different sequence.
Place this sequence in its band: SAGGSNNDNQPEPKVPYMEITINIPVNYNPNQSEEDRKRQVQEFIEELKDMYIPFPNGYPIRIDVMSAGGSA [r2_149_TrROS]
low bin

----------
# PROTOCOL SUMMARY: folding stability dG unfold (combined trypsin and chymotrypsin); higher = more stable
MEASUREMENT TYPE: folding stability dG unfold (kcal/mol)
Numbers only here, please. The scale is kcal/mol.

>  <RESIDUES>
SAGGSAGGSAGGMNTPIVVETEDLPSSRPVEEVKAEAAPKGYTEVKAYPDGTVVITKVRSSAGGSAGGSAGG [r11_961_JUSTAS]

>  <folding stability dG unfold / kcal/mol>
0.164

$$$$
>  <RESIDUES>
SAGGSAKTIVIPAEDLTPEEIKALAEENKDKIVIYNKKTKKVVTIEVKDGKITKVEEFPVSEEELKSAGGSA [r15_751_TrROS_Hall]

>  <folding stability dG unfold / kcal/mol>
-0.256

$$$$
>  <RESIDUES>
SAGGSAGGSGAEITTLPEGRALLRLYDEGGVLVEEAEVEVELDAVLVFDRDNPRIGVFGPDELSAGGSAGGS [r12_1002_TrMRF]

>  <folding stability dG unfold / kcal/mol>
-0.203

$$$$

Turning now to a further sequence:
Entry SAGGSAGGSAGGMVYFPESLKEEVIEELKKKGYKIKSIEKIEGGYIRITTPKNPIEIKLLSAGGSAGGSAGG [r17_379_JUSTAS] : reported folding stability dG unfold = ?
0.8

----------
# PROTOCOL SUMMARY: folding stability dG unfold from chymotrypsin proteolysis; higher = more stable
Threshold rule: folding stability dG unfold greater than or equal to 3 kcal/mol is t; below that, f.

>  <RESIDUES>
SAGGSAGGSWEWITAEEALKRAREENPPGKPIEFHFEDPWYFTVRFDGEDPNDVTIEWVPLEKSAGGSAGGS [r12_648_TrROS]

>  <LABEL VALUE>
f

$$$$
>  <RESIDUES>
SAGGSAGGGIEPGKKVKAKATLILPGGKPIPFTATFTPDYVTLDLGKGSLTVPVEFIAHLEIEDSAGGSAGG [r6_132_TrMRF]

>  <LABEL VALUE>
f

$$$$
>  <RESIDUES>
SAGGKSIHIADATLEDLVDLIANLPEPVVIHVERPVTFPVLLLENGVVAAVRTETAPATLTLTIPPELSAGG [r13_632_TrMRF]

>  <LABEL VALUE>
f

$$$$

In plain terms: is recorded folding stability dG unfold at least 3 kcal/mol for SAGGMVKIVRVTFEDGRELVLTEPEKIEEFLKKALGPNFVIKEVREGYVPHPDGPPIPTFELVVERPSAGGS [r16_408_TrMRF] ?
f

Check if folding stability dG unfold >= 3 kcal/mol (inclusive). Item: SAGGSAGGKTYIVKIVVKNKNGEELELTLEVETEEEAKEAAEELAKKLEEAGYEIVKVEIKKLPSAGGSAGG [r6_869_TrROS_Hall]
t

Does SAGGELKLLFNFPSKEEAEEFAEALKKAYPNFEVEVEYDPETGLFYLTLKPKEIPPLSPEELEKLLESAGGS [r16_674_TrMRF] have a reported folding stability dG unfold of at least 3 kcal/mol?
t

----------
# PROTOCOL SUMMARY: folding stability dG unfold (combined trypsin and chymotrypsin); higher = more stable
Returns Satisfied if the recorded folding stability dG unfold is greater than or equal to 2 kcal/mol, and Not satisfied otherwise.

# example entries with known answers
>  <RESIDUES>
SAGGSAGGSAGMTIQIEILTTGDLEETKKKLEEELKKKYPSSLKVIIKLSHVPASEAPSDLGSAGGSAGGSA [r18_498_JUSTAS]

>  <LABEL VALUE>
Not satisfied

$$$$
>  <RESIDUES>
SAGDADEDPVLVVFVRTEERPLVVVRRVEPDEDPEEVAKELAAEIREKLGPDVEVFVEMVRREDAEKLFSAG [r5_583_TrMRF]

>  <LABEL VALUE>
Satisfied

$$$$
>  <RESIDUES>
SAGGKPLLIKVKVRLKNGKELTITVREGESLEEILARARELLGKPIEVEKIEVIPLPPKKEVKKKEKSAGGS [r8_285_TrROS_Hall]

>  <LABEL VALUE>
Satisfied

$$$$
>  <RESIDUES>
SAGGSMAKILEIIPEEKKIVVEFEGDPKTFPLDEIEEIRIEPEKGYLTIKVGDKVYTIPLDDPNDFSAGGSA [r2_48_TrMRF]

>  <LABEL VALUE>
Not satisfied

$$$$
>  <RESIDUES>
SAPWRITDIDVKRHPNGRVRVTIRFPHPNMSVEIWLDKDGELDVEVSPDMRNHPPWFQNMIRDVAKELLSAG [r14_555_TrROS]

>  <LABEL VALUE>
Satisfied

$$$$

Hi team, for SAGGSAGGSMTILEEEVVPETGLVRILVKLPNGELLELEVDPSVGVTPVKVDGKPIFDVTVDPSAGGSAGGS [r12_789_JUSTAS] , is the recorded folding stability dG unfold at or above 2 kcal/mol?
Not satisfied

Quick check: does SAGGSMIVIVEIKPDGTIKIKVRTKDGKEKTIEISKEELEKEETPEEIAEKLAKEFEKEGVEEIEISAGGSA [r2_249_TrROS_Hall] have folding stability dG unfold greater than or equal to 2 kcal/mol?
Satisfied
